Below, each entry is listed with its recorded pIC50.
- Target: 11β-HSD1 (Homo sapiens (Human))
- Assay: Biological Test Example 1: inhibition of a microsomal preparation of 11β-HSD1 (SPA)
- Format: biochemical
- Conditions used: Biological Test Example 1; microsomes from CHO cells overexpressing human 11β-HSD1; read-out: IC50 Range
pIC50: −log10 of the molar value.

Here's what some known entries look like.
O=C(OC1C2CC3CC(C2)CC1C3)N1CCC(c2ncc(Cl)cn2)C1 (stereo not drawn) [EXAMPLE 34] :: > 7.00
NC(=O)[C@]12CC3CC(C1)[C@@H](OC(=O)N1CCC(c4ncc(Cl)cn4)C1)C(C3)C2 (single isomer, unassigned) [EXAMPLE 26 Isomer 2] :: < 7.00
Cc1cc(C2CCN(C(=O)OC3C4CC5CC3CC(C(N)=O)(C5)C4)C2)nn1C (single isomer, unassigned) [EXAMPLE 40 Isomer 1] :: > 7.00
O=C(O)c1ccc(C2CCCN(C(=O)OC3C4CC5CC(C4)CC3C5)C2)cc1 (stereo not drawn) [EXAMPLE 18] :: > 7.00
Cc1ccc(C2CCN(C(=O)OC3C4CC5CC3CC(C(N)=O)(C5)C4)C2)nc1 (single isomer, unassigned) [EXAMPLE 35 Isomer 1] :: > 7.00

Now examine the next entry.
Ask | Output pIC50 of Cn1ccc(-c2cnc(C3CCN(C(=O)OC4C5CC6CC4CC(C(N)=O)(C6)C5)C3)nc2)cc1=O (single isomer, unassigned) [EXAMPLE 57 Isomer 2]
Reply | < 7.00

====

- Target: 11β-HSD1 (Homo sapiens (Human), UniProt P28845)
- Sequence (P28845 whole entry): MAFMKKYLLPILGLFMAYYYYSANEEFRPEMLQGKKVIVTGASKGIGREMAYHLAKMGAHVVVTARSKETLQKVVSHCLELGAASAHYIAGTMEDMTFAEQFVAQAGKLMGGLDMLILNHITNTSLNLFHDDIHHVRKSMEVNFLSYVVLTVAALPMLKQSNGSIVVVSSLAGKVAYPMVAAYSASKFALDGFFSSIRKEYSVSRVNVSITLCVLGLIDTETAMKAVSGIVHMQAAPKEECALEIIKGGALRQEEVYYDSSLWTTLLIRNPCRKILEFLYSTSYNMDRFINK
- Assay: Biological Test Example 1: inhibition of a microsomal preparation of 11β-HSD1 (SPA)
- Format: biochemical
- Conditions used: Biological Test Example 1; read-out: IC50
Below, each entry is listed with its recorded pIC50.
# pIC50: negative log10 of molar concentration; output just the value

Here's what some known entries look like.
Cc1ncc(C2CCN(C(=O)OC3C4CC5CC3CC(C(N)=O)(C5)C4)C2)cn1 (single isomer, unassigned) [EXAMPLE 36 Isomer 1] :: 7.08
Cn1ccc(-c2csc([C@H]3CCCN3C(=O)OC3C4CC5CC(C4)CC3C5)n2)cc1=O (stereo partly shown) :: 9.33
Cc1noc(C2CCN(C(=O)O[C@H]3C4CC5CC3C[C@](C(N)=O)(C5)C4)C2)n1 (stereo partly shown) :: 7.75

Now examine the next entry.
Ask | Tell me its pIC50 on 11β-HSD1 (Homo sapiens (Human), UniProt P28845): COC(=O)COCC1(c2ccccc2)CCN(C(=O)OC2C3CC4CC(C3)CC2C4)CC1 (stereo not shown)
Reply | 8.27

====

- Target: 11β-HSD1 (Homo sapiens (Human), UniProt P28845)
- Assay: Biological Test Example 1: inhibition of a microsomal preparation of 11β-HSD1 (SPA)
- Assay type: biochemical
- Conditions used: Biological Test Example 1; read-out: IC50
- Method: All reactions were carried out at rt in 96 well clear flexible PET Microbeta plates (PerkinElmer). […] After a 10 minute pre-incubation, 50 μL of enzyme solution containing microsomes isolated from CHO cells overexpressing human 11-HSD1 (10-20 μg/ml of total protein) was added, and the plates were incubated for 90 minutes at rt. […] The plates were shaken for 120 minutes at rt, and the SPA signal corresponding to [^3H]cortisol was measured on a Microbeta plate reader.
Below, each entry is listed with its recorded log10 IC50.
Recorded IC50 (log10, nM)

Here's what some known entries look like.
Cn1c(C2CCCN2C(=O)OC2C3CC4CC2CC(C(N)=O)(C4)C3)nc2ccccc21 (stereo not shown) :: 0.03
NC(=O)[C@]12CC3CC(C1)[C@@H](OC(=O)N1CCC(c4ncc(Cl)cn4)C1)C(C3)C2 (single isomer, unassigned) [EXAMPLE 26] :: 0.05
O=C(O)c1ccc(C2CCCN(C(=O)OC3C4CC5CC(C4)CC3C5)C2)cc1 (stereo not shown) :: 1.44
COC(=O)Cn1c(=O)n([C@H]2CCN(C(=O)O[C@H]3C4CC5CC3C[C@](C(N)=O)(C5)C4)C2)c2ccc(F)cc21 :: 0.85

Ask | Output log10 IC50 of O=C(OC1C2CC3CC1CC(O)(C3)C2)N1CCC(c2ccncc2)C1 (stereo not shown)
Reply | 1.32

Ask | Output log10 IC50 of `NC(=O)[C@]12CC3CC(C1)[C@@H](OC(=O)N1CC[C@H](n4c(=O)n(CCO)c5cc(F)ccc54)C1)C(C3)C2`
Reply | 0.66
